Where do these numbers come from? They come from PubChem BioAssay (NCATS).

# reported max response; entries follow
Test system: NIH3T3
assay-protocol: Cytotoxic Profiling of Annotated Libraries Using Quantitative High-Throughput Screening (AID 1296008); further: on the % scale 0 is the no-effect control and ±100 the full control effect; nearly all actives have a fitted effect of over 60% in size
stated-conditions: Five cell lines viability, CellTiter-Glo ATP luminescence, 48-72 h; active compounds read low
Protocol: Cell-based phenotypic screening is a commonly used approach to discover biological pathways, novel drug targets, chemical probes and high-quality hit-to-lead molecules. […] A pintool (Kalypsys) was used to transfer 23 nL of compound solution to the 1536-well assay plates. […] Plates were left at room temperature for 10 min before imaging the ATP-coupled luminescence using a ViewLux microplate imager (PerkinElmer, Waltham, MA).
Results filed as inconclusive are left out.
A number alone suffices; assume %.

Take a look at these entries with their results.
| compound | tested-on | max response / % |
| --- | --- | --- |
| O=C(NCCN1CCC2(CC1)C(=O)NCN2c1cccc(F)c1)c1ccc(F)c(F)c1 | NIH3T3 | -17.5 |
| CCOc1ccc(Oc2ccc(OCc3cc(F)ccc3F)cc2)c(N)c1 | NIH3T3 | -0.81 |
| COC1CC(O[C@H]2CC[C@@]3(C)C(CCC4C3CC[C@]3(C)[C@@H](C5=CC(=O)OC5)CC[C@]43O)C2)OC(C)C1O (stereo not given in full) | NIH3T3 | -0.0473 |
| C[C@]12CC[C@H](O)C[C@@H]1CC[C@@H]1[C@@H]2CC[C@]2(C)C(=O)CC[C@@H]12 | NIH3T3 | -0.109 |
| NC(=O)[C@@H](CC1CC1)[C@@H](CCC(F)(F)F)C(=O)N[C@H]1N=C(c2ccccc2)c2cccc(F)c2NC1=O | NIH3T3 | -16.9 |
| CC(C)[C@H](NC(=O)c1nn(Cc2ccc(F)cc2)c2ccccc12)C(N)=O | NIH3T3 | -27.5 |
| C[C@@H]1O[C@@H](O[C@H]2CC[C@@]3(C)C(CC[C@@H]4C3CC[C@]3(C)[C@@H](C5=CC(=O)OC5)CC[C@]43O)C2)[C@H](O[C@@H]2O[C@H](CO)[C@@H](O)[C@H](O)[C@H]2O)[C@H](O)[C@H]1O (stereo not given in full) | NIH3T3 | -13.4 |
| C[C@H]1O[C@@H](O[C@H]2CC[C@]3(C=O)C4CC[C@]5(C)[C@@H](C6=CC(=O)OC6)CC[C@]5(O)[C@@H]4CC[C@]3(O)C2)C[C@@H](O)[C@@H]1O (stereo not given in full) | NIH3T3 | -1.6 |

Now take the following compound into account.
# input State max response (NIH3T3) of CCOP(=O)(OCC)Oc1ccc2c(C)cc(=O)oc2c1 .
# output -21.6

###

assay-protocol: NCATS anti-infectives library activity on HEK293 viability as a counter-qHTS vs the C. elegans viability qHTS (AID 1745854);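 further: HEK293 cells exposed to compounds for 24 hr before the viability read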; further: potency means the concentration at half of the fitted maximal effect
stated-conditions: HEK293 viability counter-screen; series mostly up to 41.8 µM
Inconclusive results are not listed. Calls of active or inactive are those of the source. The call rests on the fitted dose curve; in most records, active means well fitted cell-killing curve with a large enough effect; inconclusive means small, poorly fitted or top-dose-only effect; inactive means flat fitted curve, though single readings scatter.
property-measured: Potency

Take a look at these entries with their results.
| compound | val |
| --- | --- |
| CC[C@H]1/C=C\C=C/C[C@@H](C)[C@H](O)[C@@](C)(O)C(=O)[C@@H](C)[C@H](O)[C@@H](C)C(=O)[C@@H](C)[C@H](O)[C@@H](C)/C=C\C(=O)O[C@@H]2[C@H](C)[C@H](CC1)O[C@]1(CC[C@H](C)[C@H](C[C@@H](C)O)O1)[C@H]2C | 15.8 µM (active) |
| O=NN1CCCC1c1cccnc1 (stereo unspecified) | inactive |
| CCC(=O)CCCCC[C@@H]1NC(=O)[C@H]2CCCCN2C(=O)[C@H]([C@@H](C)CC)NC(=O)[C@H](Cc2cn(OC)c3ccccc23)NC1=O | inactive |
| Cc1sc2c(c1C)C(c1ccc(Cl)cc1)=N[C@@H](CC(=O)Nc1ccc(O)cc1)c1nnc(C)n1-2 | inactive |
| CN(C)Cc1c[nH]c2ccccc12 | inactive |

Now take the following compound into account.
# input Name the recorded Potency of the item COC1=C[C@]23CCCN2CCc2cc4c(cc2[C@@H]3[C@@H]1O)OCO4 in your answer.
# output inactive
